# Protocol: CCTE_Shafer_MEA_acute_AB: CCTE's Alamar Blue Assay for Cytotoxicity in the Neural Acute Assay, Shafer Lab (AID 2284069);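 also: active compounds lower the viability signal compared with DMSO wells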
Results filed as inconclusive are left out. The source made the active and inactive calls. The calls were made as follows: active = hit-call score of the fitted dose curve at least 0.9, where 1 is the maximum; inconclusive = response in the unintended direction; inactive = score below 0.9.
Classes used: Y for active, N for inactive

>>> print(df.to_string())
                                    molecule  qualitative_label
 0                    O=P(OCCCl)(OCCCl)OCCCl                  N
 1                  COC(=O)Nc1nc2ccccc2[nH]1                  N
 2    Clc1ccc(C(c2ccc(Cl)cc2)C(Cl)(Cl)Cl)cc1                  N
 3                  Cc1cc(N=Nc2ccccc2C)ccc1N                  N
 4          CC(C)(OOC(C)(C)c1ccccc1)c1ccccc1                  N
 5                                CCN(CC)CCO                  N
 6          CC(C)COC(=O)c1ccccc1C(=O)OCC(C)C                  N
 7  CC(C)(C)C(O)(CCc1ccc(Cl)cc1)Cn1cncn1 (stereo unspecified)                  N
 8                           Cc1ccc(N)c(N)c1                  N
 9                                N#CC(Br)Br                  N
10                   O=[N+]([O-])C(Br)(CO)CO                  Y

---

# Protocol: ACEA_AR_agonist_AUC_viability: ACEA Biosciences xCELLigence Real-Time Cell Analysis on Androgen Receptor Agonism for Viability (AID 2283775)
Results filed as inconclusive are left out. The source made the active and inactive calls. How the source made its calls: active means hit-call score of the fitted dose curve at least 0.9, where 1 is the maximum; inconclusive means response in the unintended direction; inactive means score below 0.9.
Classes used: true (1) for active, false (0) for inactive

>>> print(df.to_string())
                                    molecule  qualitative_label
 0  CO[C@@H]1[C@H](OC(=O)NC(=O)CCl)CC[C@]2(CO2)[C@H]1[C@@]1(C)O[C@@H]1CC=C(C)C           true (1)
 1          CC(C)(OOC(C)(C)c1ccccc1)c1ccccc1           true (1)
 2                       C=CCc1ccc2c(c1)OCO2          false (0)
 3  ClC1=C(Cl)C2(Cl)C3C(Cl)C=CC3C1(Cl)C2(Cl)Cl (stereo unspecified)           true (1)
 4                 Oc1ccc2ccc3cccc4ccc1c2c34           true (1)
 5                                 [As]#[In]          false (0)
 6      CCC[CH2][Sn]([Cl])([CH2]CCC)[CH2]CCC           true (1)
 7  ClC1=C(Cl)[C@]2(Cl)[C@H]3[C@H]([C@@H]4C=C[C@H]3C4)[C@@]1(Cl)C2(Cl)Cl           true (1)
 8                     Cc1ccc(N=C=O)cc1N=C=O           true (1)
 9                   Nc1ccc(Oc2ccc(N)cc2)cc1          false (0)
10  CC(C)(C)C(O)(CCc1ccc(Cl)cc1)Cn1cncn1 (stereo unspecified)           true (1)
11  CCCCCCCCOC(=O)c1ccc(C(=O)OCCCCCCCC)c(C(=O)OCCCCCCCC)c1          false (0)
12  CCOC(=O)[C@]1(c2ccccc2)Oc2ccccc2[C@@H]1N           true (1)
13               CNC(=O)Oc1cccc2c1OC(C)(C)C2          false (0)
14                         CCCCCCCCn1sccc1=O           true (1)
15     O=[N+]([O-])c1ccc(Oc2ccc(Cl)cc2Cl)cc1           true (1)

---

# Read-out: Cytochrome P450 (CYP1A2), CYP1A2 (gene 1544)
# Protocol: LTEA_HepaRG_CYP1A2: Life Technologies and Expression Analysis (LTEA) Assay for Cytochrome P450 (CYP1A2) using HepaRG (AID 2283479)
# Test Parameters: mRNA level, 48 h; actives raise or lower the signal
The source made the active and inactive calls. The calls were made as follows: active = hit-call score of the fitted dose curve at least 0.9, where 1 is the maximum; inactive = score below 0.9.
Classes used: active, inactive

>>> df
                                molecule  qualitative_label
0  CCC(C)c1ccc(O)cc1 (centres undefined)           inactive
1                Nc1ccc(Cc2ccc(N)cc2)cc1             active
2                Nc1cc(Cl)cc(C(=O)O)c1Cl             active
3                 O=P(OCCCl)(OCCCl)OCCCl           inactive

---

# Read-out: Interleukin-8 (IL8), CXCL8 (gene 3576)
# Protocol: BSK_3C_IL8: BioMAP Diversity Plus: 3C Assay for Interleukin-8 (IL8) Biomarker Activity (AID 2283020)
# Test Parameters: primary human endothelial cells (HUVEC); actives raise or lower the signal
# Procedure: BSK_3C is a cell-based, multiplexed-readout assay that uses umbilical vein endothelium, a human vascular primary cell, with measurements taken at 24 hours after chemical dosing in a 96-well plate.BSK_3C_IL8 is an assay component measured in the BSK_3C assay. It measures IL-8 antibody related to regulation of gene expression using ELISA technology.Data from the assay component BSK_3C_IL8 was analyzed into 1 assay endpoint. […]
Activity calls are given as the source filed them. Rule for the calls: active = hit-call score of the fitted dose curve at least 0.9, where 1 is the maximum; inactive = score below 0.9.
Classes used: active, inactive

>>> print(df.to_string())
                                    compound  qualitative_label
 0          COP(=S)(OC)SCN1C(=O)c2ccccc2C1=O           inactive
 1                                   OCCOCCO           inactive
 2            CC(C)N(Cc1ccccc1)C(=O)C(C)(C)C           inactive
 3                     c1ccc(N=Nc2ccccc2)cc1           inactive
 4                   O=C(Nc1ccccc1)c1ccccc1I           inactive
 5  CC(C)(C)C(O)(CCc1ccc(Cl)cc1)Cn1cncn1 (stereo not drawn)           inactive
 6                        Clc1ccc(Cl)c(Cl)c1           inactive
 7  ClC1=C(Cl)C2(Cl)C3C(Cl)C=CC3C1(Cl)C2(Cl)Cl (stereo not drawn)             active
 8                                O=Cc1ccco1           inactive
 9                   Nc1ccc(Cc2ccc(N)cc2)cc1           inactive
10                     Brc1ccc(Oc2ccccc2)cc1           inactive
11                      c1ccc(NNc2ccccc2)cc1           inactive
12  CCCCC(CC)COC(=O)c1ccc(C(=O)OCC(CC)CCCC)c(C(=O)OCC(CC)CCCC)c1 (stereo not drawn)           inactive
13                            Nc1ccc(Cl)cc1N           inactive
14        c1ccc(C2CO2)cc1 (stereo not drawn)           inactive
15  COc1cc(C=O)cc2c1[C@H](COC(N)=O)[C@]1(OC(C)=O)ON2C[C@H]2[C@@H]1N2C(C)=O             active
16           O=C(Oc1ccc(Br)cc1)N1CCN2CCC1CC2           inactive
17                   O=[N+]([O-])C(Br)(CO)CO             active
18         CCCCOC(=O)c1ccccc1C(=O)OCc1ccccc1           inactive
19                  COC(=O)Nc1nc2ccccc2[nH]1           inactive
20    Clc1ccc(C(c2ccc(Cl)cc2)C(Cl)(Cl)Cl)cc1             active
21  CCOC(=O)[C@]1(c2ccccc2)Oc2ccccc2[C@@H]1N             active
22  O=C(O)C1C2CCC(O2)C1C(=O)O (stereo not drawn)           inactive
23                                CCN(CC)CCO           inactive
24                           Cc1ccc(N)c(N)c1             active
25                                [O-][Cl+]O           inactive
26  CCCCCCCCCCCCCN1CC(C)OC(C)C1 (stereo not drawn)           inactive
27                               Oc1ccccc1Cl           inactive
